Length Increase (mm) values for the molecules below.
Test system: human hair follicles
Assay: Human hair follicle growth assay
Assay type: cell-based
Conditions: 100 μM, day 0 to day 6

{"molecule": "CC1COc2c(N3CCN(C)CC3)c(F)cc3c(=O)c(C(=O)O)cn1c23 (stereo not shown)", "Length Increase (mm)": "1.16 ± .12 mm"}
{"molecule": "C[N+]1(CCC(=O)Nc2ccc3c(c2)C(=O)c2ccc(NC(=O)CC[N+]4(C)CCCCC4CO)cc2C3=O)CCCCC1CO.[I-].[I-] (stereo not shown)", "Length Increase (mm)": ".286 ± .09 mm"}
{"molecule": "O=C(CCN1CCCCC1)Nc1ccc2c(c1)C(=O)c1ccc(NC(=O)CCN3CCCCC3)cc1C2=O", "Length Increase (mm)": "0.25 ± .30 mm"}
{"molecule": "O=C1c2ccc3c4ccc5c6c(ccc(c7ccc(c2c37)C(=O)N1CCN1CCCCC1)c64)C(=O)N(CCN1CCCCC1)C5=O", "Length Increase (mm)": "0.80 ± .12 mm"}
